# EXPERIMENTAL_SYSTEM: alpha-synuclein (aSyn) WT (human, UniProt P37840 1-140)
# ASSAY_PROCEDURE: RNA Bind-n-Seq
# TEST_CONTEXT: ssRNA
REPORTED_ENDPOINT: binding signal (enrichment score)
The reply should contain only the number, in enrichment score.

response.value for "GGGGGUGGUGUU" (field: binding signal) = 49.1

response.value for "GGGGGUGGCAGA" (field: binding signal) = 43.8

response.value for "GAGGUGGAGGGU" (field: binding signal) = 57.4

response.value for "AAGGGGCGGAGG" (field: binding signal) = 54.6

response.value for "GGGAUGUGUGGG" (field: binding signal) = 60.2

response.value for "AUGGGAGUGGGG" (field: binding signal) = 43.8

response.value for "UGGGGGAUGAGG" (field: binding signal) = 46.4

response.value for "GGUGGGUUUGGG" (field: binding signal) = 65.9

response.value for "GUGGGGAAGGGU" (field: binding signal) = 49.1

response.value for "GGGGGGAUUGGG" (field: binding signal) = 57.4

response.value for "AGUUGGUGGUGG" (field: binding signal) = 46.4

response.value for "UGGGUGGGUGGG" (field: binding signal) = 46.4

response.value for "GUGUAGGUGGGG" (field: binding signal) = 43.8

response.value for "AGUGGGGGGGUG" (field: binding signal) = 43.8

* * *

# EXPERIMENTAL_SYSTEM: alpha-synuclein (aSyn) WT (human, UniProt P37840 1-140)
# ASSAY_PROCEDURE: RNA Bind-n-Seq
# TEST_CONTEXT: ssRNA
Could you please report measured binding signal for the items listed next?
The reply should contain only the number, in enrichment score.

response.value for "GGCGGUUGUUGG" (field: binding signal) = 46.4

response.value for "UGGGGGAUGGAG" (field: binding signal) = 41.1

response.value for "AGGGGGGAGCAG" (field: binding signal) = 49.1

response.value for "GUGUGGGGGCAG" (field: binding signal) = 43.8

response.value for "GGAGGAAGGGGA" (field: binding signal) = 41.1

response.value for "GGAGGUGGUGGA" (field: binding signal) = 46.4

response.value for "GUGGGUGUGGUA" (field: binding signal) = 41.1

response.value for "UGGGGUAUUGGG" (field: binding signal) = 43.8

response.value for "AGGGGGAUGUGG" (field: binding signal) = 54.6

response.value for "GGAGGCAGUGGG" (field: binding signal) = 41.1

response.value for "GGAAUGGGGUGG" (field: binding signal) = 43.8

response.value for "UGAGUGGGUGGU" (field: binding signal) = 43.8

response.value for "CGGAGGUGGGUG" (field: binding signal) = 41.1

response.value for "GGAGGUAGGGAG" (field: binding signal) = 43.8

response.value for "GGUAGGCUGUGG" (field: binding signal) = 49.1

response.value for "GUGUGGCGGAGG" (field: binding signal) = 46.4

response.value for "GGCGGGGGGUGA" (field: binding signal) = 43.8

response.value for "GCGGGAUGGGGG" (field: binding signal) = 43.8

response.value for "GCGGGCAGGUGG" (field: binding signal) = 43.8

response.value for "GUGGGGGUGGAU" (field: binding signal) = 60.2

response.value for "UGGGGUGGGAGU" (field: binding signal) = 46.4

response.value for "GUGGGGGGGGCA" (field: binding signal) = 43.8

response.value for "AUGGGGUGGGCG" (field: binding signal) = 41.1

response.value for "UGGGUUUGGGGG" (field: binding signal) = 46.4

response.value for "AGGGGAGCUGGG" (field: binding signal) = 41.1

response.value for "GGAGGUGGUGCG" (field: binding signal) = 41.1

response.value for "GGGGUGAGGUGU" (field: binding signal) = 41.1

response.value for "GGGCAGUGGAGG" (field: binding signal) = 54.6

response.value for "GGGGGAUGUGGU" (field: binding signal) = 46.4

response.value for "GGUGGUUUGUGG" (field: binding signal) = 43.8

response.value for "GGUGGAUGAGGG" (field: binding signal) = 41.1

response.value for "GGAGGAGGCGGU" (field: binding signal) = 41.1

response.value for "GGGUGGGCGGGG" (field: binding signal) = 96

response.value for "AGGGGUUUUGGG" (field: binding signal) = 43.8

response.value for "UGGGGAGUGGGU" (field: binding signal) = 51.8

response.value for "GUGGGGAGGAAG" (field: binding signal) = 46.4

response.value for "AGGGUGGCGGUG" (field: binding signal) = 49.1

response.value for "GGCAGGCUGUGG" (field: binding signal) = 41.1

response.value for "GGGGGGGGGGUG" (field: binding signal) = 49.1

response.value for "CGUGGGGAGUGG" (field: binding signal) = 41.1

response.value for "GGGCUGGGAGUG" (field: binding signal) = 41.1
